study.target: fatty acyl CoA: cholesterol acyl transferase (ACAT) (Rattus norvegicus, UniProt O70536)
Construct: The supernatant, containing the microsomal fraction, served as the source of the cholesterol-esterifying enzyme; from tissue; host or cells: rat adrenals, supernatant of 1,000 x g centrifugation containing the microsomal fraction
Sequence (O70536 whole entry): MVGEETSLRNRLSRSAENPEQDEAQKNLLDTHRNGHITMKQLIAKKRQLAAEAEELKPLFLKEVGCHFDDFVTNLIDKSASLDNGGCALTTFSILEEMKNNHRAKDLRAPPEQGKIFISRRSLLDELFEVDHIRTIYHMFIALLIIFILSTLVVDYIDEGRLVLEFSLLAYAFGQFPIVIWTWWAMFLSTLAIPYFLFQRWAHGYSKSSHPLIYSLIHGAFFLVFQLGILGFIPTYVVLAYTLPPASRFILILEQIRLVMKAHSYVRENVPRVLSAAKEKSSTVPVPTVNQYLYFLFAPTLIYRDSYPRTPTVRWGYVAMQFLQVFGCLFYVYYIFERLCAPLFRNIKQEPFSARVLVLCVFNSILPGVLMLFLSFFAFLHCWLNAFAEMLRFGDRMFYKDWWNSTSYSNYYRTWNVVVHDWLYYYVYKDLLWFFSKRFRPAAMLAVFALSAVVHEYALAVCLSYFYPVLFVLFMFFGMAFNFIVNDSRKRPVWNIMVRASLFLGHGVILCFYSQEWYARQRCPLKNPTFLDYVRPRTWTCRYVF
protocol.details: Inhibition of fatty acyl CoA:cholesterol acyl transferase (ACAT), rat adrenal enzyme
Assay type: biochemical
assay.conditions: rat adrenal ACAT; final concentration 5.2 μg/ml; read-out: % Inhibition
measured.parameter: inhibition at 5.2 µg/mL (%)
Please reply with the bare figure in % and do not write the unit itself.

Problem: Would you mind telling me what inhibition at 5.2 µg/mL value was observed for CCCCCCCN(Cc1ccc(CCCC)cc1)C(=O)Nc1ccc(C(=O)OCC)cc1 ?
Solution: 92.4

Problem: Would you mind telling me what inhibition at 5.2 µg/mL value was observed for CCCCCCCN(Cc1ccc(OCCCC)cc1)C(=O)Nc1ccc(Cl)cc1C(F)(F)F ?
Solution: 89.4

Problem: Would you mind telling me what inhibition at 5.2 µg/mL value was observed for CCCCOc1ccc(CN(Cc2ccccc2)C(=O)Nc2ccc(C)cc2C)cc1 ?
Solution: 91.7

Problem: Would you mind telling me what inhibition at 5.2 µg/mL value was observed for CCCCOc1ccc(CN(Cc2ccccc2)C(=O)Nc2cc(Cl)c(Cl)cc2Cl)cc1 ?
Solution: 89

Problem: Would you mind telling me what inhibition at 5.2 µg/mL value was observed for CCCCN(Cc1ccccc1)C(=O)Nc1cccc(C)c1 ?
Solution: 92.3

Problem: Would you mind telling me what inhibition at 5.2 µg/mL value was observed for Cc1cc(Cl)ccc1NC(=O)N(Cc1ccccc1)C(Cc1ccccc1)c1ccc(OCc2ccccc2)cc1 (stereo not drawn) ?
Solution: 89.3

Problem: Would you mind telling me what inhibition at 5.2 µg/mL value was observed for CCCCCCCN(CCc1ccccc1)C(=O)Nc1cccc(C(F)(F)F)c1 ?
Solution: 88.4

Problem: Would you mind telling me what inhibition at 5.2 µg/mL value was observed for CCCCCOc1ccc(CN(Cc2ccc(CCCCC)cc2)C(=O)Nc2ccc(Cl)cc2C)cc1 ?
Solution: 91

Problem: Would you mind telling me what inhibition at 5.2 µg/mL value was observed for CCCCOc1ccc(CN(Cc2ccccc2)C(=O)Nc2ccc(F)cc2F)cc1 ?
Solution: 88

###

Hi there, I'd appreciate the recorded response vs control in vivo at 0.03 % for every entry that follows.
System: cholesterol absorption
protocol.details: Inhibition of cholesterol absorption in rats fed 1% cholesterol:0.5% cholic acid diet
Type: in vivo, male Sprague-Dawley rats
assay.conditions: po, 336 h; rat; dose .03% of the diet, 2 weeks; read-out: SS (serum sterol), percentage of control values
Please reply with the bare figure in % and do not write the unit itself.

Problem: Would you mind telling me what response vs control in vivo at 0.03 % value was observed for Cc1cc(C)c(NC(=O)N(Cc2ccccc2)C(Cc2ccccc2)c2ccc(OCc3ccccc3)cc2)c(C)c1 (stereo not drawn) ?
Solution: 60

Problem: Would you mind telling me what response vs control in vivo at 0.03 % value was observed for CCCCCCCN(Cc1ccc(OCCCC)cc1)C(=O)Nc1ccc(Cl)cc1C(F)(F)F ?
Solution: 59

Problem: Would you mind telling me what response vs control in vivo at 0.03 % value was observed for CCCCOc1ccc(CN(CCC(C)(C)C)C(=O)Nc2ccc(Cl)cc2C)cc1 ?
Solution: 61
